System: CHO
procedure_text: Selectivity ratio of Ke for human delta opioid receptor expressed in CHO cell membrane to Ke for human kappa opioid receptor expressed in CHO cell membrane
Type: cell-based
Known Ratio Ke of a selection of molecules
experimental_endpoint: Ratio Ke

smiles_entry: CC(C)[C@@H](CN1CCC(c2ccccc2)CC1)NC(=O)[C@H]1Cc2ccc(O)cc2CN1
comparison_operator: =
result_value: 5510

smiles_entry: CC(C)[C@@H](CN1CCC(C)(c2cccnc2)CC1)NC(=O)[C@H]1Cc2ccc(O)cc2CN1
comparison_operator: >
result_value: 16700

smiles_entry: CC(C)[C@@H](CN1CCC(c2ccsc2)CC1)NC(=O)[C@H]1Cc2ccc(O)cc2CN1
comparison_operator: =
result_value: 983

smiles_entry: CC(C)[C@@H](CN1CCC(c2cccnc2)CC1)NC(=O)[C@H]1Cc2ccc(O)cc2CN1
comparison_operator: =
result_value: 2240

smiles_entry: CC(C)[C@@H](CN1CCC(c2ccccn2)CC1)NC(=O)[C@H]1Cc2ccc(O)cc2CN1
comparison_operator: =
result_value: 1370

smiles_entry: CC(C)[C@@H](CN1CCC(c2ccncc2)CC1)NC(=O)[C@H]1Cc2ccc(O)cc2CN1
comparison_operator: =
result_value: 1350

smiles_entry: CC(C)[C@@H](CN1CCC(C)(c2ccncc2)CC1)NC(=O)[C@H]1Cc2ccc(O)cc2CN1
comparison_operator: =
result_value: 1430
